# Assay Overview: soluble fraction after stress (log2 fold change); higher = more stays soluble; pooled small domains, quantitative proteomics;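 also: 20 min heating vs room temperature control held 20 min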
# Run Parameters: stress: 75 degC
Readout Type: soluble fraction (log2)
Lab note: jot down the number only; don't add units.

Use the examples below as a reference point.
>  <Chain>
HMVFSNLGSRGEEVRQIQTKLKELGYLQGNVDGIYGNQTKQAVTAFQRDHGLSADGIAGEKTLAALGIG

>  <soluble fraction (log2)>
0.636

$$$$
>  <Chain>
HMKSLLTARQLEVFEIARNKGYWTTPRKISLVELSKLLDISKSTLSVLLHSIEGKVMEEFYEEIRQ

>  <soluble fraction (log2)>
-2.22

$$$$

May I ask what soluble fraction (log2) has been recorded for HMAVKNAQIDVQQFFYSKSGEVDFGRKIKAIQSHFTPERLQSFTAAVPPSQWVSQLQVMWDSL ?
-2.12

Try this sequence next: HMHYKLIIFENHTKSTSLDITPEQARQILGVTDYTPEQYEILAEITNRPASYFMDDLVDYYVD
-2.33

Try this sequence next: HMSDLTEVIVKFSGDIQPIRQDLDAQVEILLKGYAIITLSPNKIGRLYSYPQIESIEIPKNLYI
-2.73

Try this sequence next: HMDAMLGEALRLIRVYHDLKQKQAAERLEVSTSYLSEIERGLKTPTLDIIQRYATVFDMPVSSIMFFSENL
-3.1

Try this sequence next: HMSGILINGELYKPGEQMSLKQRLSIQARIQMQGEDTVKPEMLKDFYNSGGPLSKEESSEYMKSQN
-0.515

Try this sequence next: HMRDGHEQLQGVLSAIKFHQANFLIGVLDDGTTVKGNMLSPQVGLEYTFRGRRERHPRWGEQFAFMDYRV
-3.31

Try this sequence next: HMEDNLMIVVQVNGKKRSEIKVSIDASEDQIKQTALAEPNVQKFVEGHTIRKMILVPSKLLNIVV
-1.65

Try this sequence next: HMGASFITSSKDNAINIRESATTDSKVIETIKNGEILESTEKSGDWHKVTYYNSEIKKSFTGYIHNSQLK
0.426

Try this sequence next: HMLPIKLDLEIGENVRVVSGPLENFVGSVVSFDTDQQKVKLVVEMFGRKTPVELDFIEVQKLR
-2.24

---

# Assay Overview: soluble fraction after stress (log2 fold change); higher = more stays soluble; pooled small domains, quantitative proteomics
# Run Parameters: stress: 75 degC
# if value of soluble fraction (log2) reaches -1, tag Y; if it stays below, tag N

Known results for sequences:
>  <Chain>
HMNTFKNIFIQEGDLFNLKKNDNQIIFAKEGILINENKKIFRLLNGKIISTNNNRLIGFEFDKIDYNLSN

>  <Label Class>
Y

$$$$
>  <Chain>
HMKEIATKSELTYFIQRLLDLLEETNFFNPEERKKAMINHIEAIFRRNNLTLQELNMLHGIITSITR

>  <Label Class>
N

$$$$
>  <Chain>
HMAIDYYQTLINLGYKLQDRGDYWQTSAIHRGGDNPTALQIYKNTGVWKDYVSGGGFKPFKALVEKSD

>  <Label Class>
Y

$$$$
>  <Chain>
HMDLLAESLTRREAEVAALAARGLTNRAIAELFGLSVRTAETHLHRAMGKLGANRREDLLLHADRLDPG

>  <Label Class>
N

$$$$
>  <Chain>
HMVWMIEKDQSVILVNKLERIQVEALGKALENGNFGDRIRVINNKSGQKLLGIVESEKKIQIISKI

>  <Label Class>
N

$$$$
>  <Chain>
HMKTATAKIKATPFGWLRVRETPSLNGAEIARVNSGESYKILERGEGWIKIKVSDTVEGWVSEAYVELS

>  <Label Class>
Y

$$$$
>  <Chain>
HMGGQKTREAIFDLIMTNSKITSAQIAEILGIHRSGVARHLKKLQEEGLIKREGPDNGGQWIVIK

>  <Label Class>
Y

$$$$

Check if soluble fraction (log2) >= -1 (inclusive). Item: HMSKAYLSVESNISGARVFVDGQKEGTTPLSDVLLSAGEHLILVKKQGYETYQKRVRFQKGRSMSLYVDLS
Y

---

# Assay Overview: soluble fraction after stress (log2 fold change); higher = more stays soluble; pooled small domains, quantitative proteomics
# Run Parameters: stress: 75 degC
# if value of soluble fraction (log2) reaches -0.4, tag Satisfied; if it stays below, tag Not satisfied

>  <Chain>
HMESPSGGHRIALAFDQGTARAVDATYARLTGAGYEGRTKPWDAPWGQRYATVFDPDGNSVDLFAALE

>  <Label Class>
Not satisfied

$$$$
>  <Chain>
HMKNMSLGERIKEQRKSSGLSQEKVAEFVGVSRQAVTKWETGQSAPSTENLFKLAEIFGTTVDILLA

>  <Label Class>
Satisfied

$$$$
>  <Chain>
HMFQRLPFSFANRYKMVLEYQHPERPPVLYYVEPLKAAAILEVSRVIKSGFTPQAIVSDEFEKKLTEAYQR

>  <Label Class>
Not satisfied

$$$$

Check if soluble fraction (log2) >= -0.4 (inclusive). Item: HMHRGTPASIIAAAKQYLTGGQTVELYEREGGPWTFRLRTYLSETPYPEKVRASVEALKPAGVVFLYELQS
Satisfied

Try this sequence next: HMQNKFLDIVGEIEVKAVDYYLLKDTSGLVIKFPKNLVFANGLKIADNKIGLTVSLYGAWVHEET
Not satisfied

---

# soluble fraction (log2) listing for each entry below
# Assay Overview: soluble fraction after stress (log2 fold change); higher = more stays soluble; pooled small domains, quantitative proteomics
# Run Parameters: stress: 75 degC
Lab note: jot down the number only; don't add units.

>  <Chain>
HMDPEEQIQSREIWEAVERALDGMQEKGRRVVIALLEGQTQLEVSRAAGISQPLISYYLKSFRTKVRTELG

>  <Readout Type>
soluble fraction (log2)

>  <Value>
-0.73

$$$$
>  <Chain>
HMQDLAKRWVEEFGDLLYKYTLPRVSDSGIAKDLVQETFLAAWRNIDNFKGEASEKNWLFTILKNKIIDH

>  <Readout Type>
soluble fraction (log2)

>  <Value>
-0.382

$$$$
>  <Chain>
HMVNLLVTPLEELEINFRTLRALRKYNIYQLEDLLRFIKYNGFDALRIVPGMGIKSTEQLYEKLKDKNI

>  <Readout Type>
soluble fraction (log2)

>  <Value>
-0.112

$$$$

May I ask what soluble fraction (log2) has been recorded for HMSTINGIEKYLSSGLIPYIGPKTAKRIVEKFGLDTLEIIQYNPERLKEIEGIGDKKLKKIVEAFEEQG ?
-0.245

---

# Assay Overview: soluble fraction after stress (log2 fold change); higher = more stays soluble; pooled small domains, quantitative proteomics
# Run Parameters: stress: 75 degC
Readout Type: soluble fraction (log2)
Lab note: jot down the number only; don't add units.

Use the examples below as a reference point.
>  <Chain>
HMSPRADRSVNLDVGETVQIDDWGADGTAQIRYRGAPWTAVLRPGHTPHPGPHRVIELVGSRLLVEP

>  <soluble fraction (log2)>
0.0352

$$$$
>  <Chain>
HMGGAVQIAEQIAARIKDGALRPGELLPPVRQLAAELEVNPNTVASAYARLRDAGLVATRGRAGTVVLEPP

>  <soluble fraction (log2)>
-0.421

$$$$
>  <Chain>
HMGFALLIAIERTGNTTYFVKLTLIKKGSDSDVLKDSFSVSQGDLVGTATYDSVIANRIREKTAAMWQKAT

>  <soluble fraction (log2)>
-2.76

$$$$

Read the next record carefully.
May I ask what soluble fraction (log2) has been recorded for HMSAPTAFSERELELLAGMRRGASNKAMAEQLFISVNTVKYHRANLMRKLGARDRNEALEVAARLG ?
0.404

---

# Assay Overview: soluble fraction after stress (log2 fold change); higher = more stays soluble; pooled small domains, quantitative proteomics
# Run Parameters: stress: 75 degC
# if value of soluble fraction (log2) reaches -1, tag Criterion met; if it stays below, tag Criterion not met

Known results for sequences:
>  <Chain>
HMIMQTTSDRINQRMRDLGLQHKDLVAATGASKGTVTNWINGVNNPTGKRLVQLAQALKTTSSWLLTGN

>  <Label Class>
Criterion met

$$$$
>  <Chain>
HMSADISIGYNIPKGSVTVSAGGRTLQEGIDYDINYDLGTIKITNQAILNAGLPVQVNFENNAS

>  <Label Class>
Criterion met

$$$$
>  <Chain>
HMLRQVSDSNALETAVKKVLDANPEEVERYKSGNKKLISFFVGQTMKATKGAGNPKEINSILAKLL

>  <Label Class>
Criterion met

$$$$
>  <Chain>
HMDGKPSLIISNGQINYKEMVKLRYSLEDLLFQLRQNSIKSIEEVEYAFLESNGKLSIFPYNFL

>  <Label Class>
Criterion not met

$$$$
>  <Chain>
HMSTTALLEKMVRYIRTLPVISQVVLSLHYYRGMELREIASELDITESRASQLHTTAVLGIRDLLSSY

>  <Label Class>
Criterion not met

$$$$

Check if soluble fraction (log2) >= -1 (inclusive). Item: HMRTNNEITSYKLKSGKKRWKFQTYLGLDDKGQKVSVTRQGFRTYNEAISEYNKLRAQGTQGYQ
Criterion met

Try this sequence next: HMLPFGHTRLEDGTIQEIPEQIALARKVAEMYKAGFPVMQISIKTEGLLTPRQIYGLMNHWGVKR
Criterion not met

Try this sequence next: HMTAMQYVTIKDIADALGISKSSVSRALAGDVHNVSAQTIERVRAKALEMGYLRNNAAVNLR
Criterion met
